Origin of values: patent US11279691B2

As shown below, each of these compounds has a reported EC50 value.
- tgt: PDE4D3 (Homo sapiens)
- Construct: GST
- Format: biochemical
- measurement-conditions: GST-tagged PDE4D3, 200 nM FAM-cAMP, 11-point dose-response; read-out: PD4d3 pEC50 (converted)

{"compound": "COc1ncc(Cn2nnnc2CO)cc1-c1cccc(Cl)c1", "tgt": "PDE4D3 (Homo sapiens)", "EC50": "1 to 10 µM"}

Prompt: Give EC50; test system PDE4D3 (Homo sapiens); compound `CCOc1ncc(Cn2cnc(CO)n2)cc1-c1cccc(F)c1`
Completion: 0.1 to 1 µM

Prompt: System PDE4D3 (Homo sapiens). Read-out EC50. Item `COc1ncc(Cc2cnc(OC(F)F)nc2)cc1-c1cccc(Cl)c1` . Report value.
Completion: 0.1 to 1 µM

Prompt: GET EC50 | system: PDE4D3 (Homo sapiens) | item: `COc1ncc(Cc2cnc(CC(N)=O)nc2)cc1-c1cccc(Cl)c1`
Completion: < 0.1 µM

Prompt: Would you please give the reported EC50 of `CCOc1ncc(Cn2nnc(C)n2)cc1-c1ccnc(OC(F)F)c1` with PDE4D3 (Homo sapiens)?
Completion: < 0.1 µM

Prompt: Please respond with reported EC50 (system PDE4D3 (Homo sapiens)) for `CCOc1ncc(Cn2nnc(C)n2)cc1-c1ccc(F)c(F)c1` .
Completion: < 0.1 µM

Prompt: Give measured EC50 for `COc1ncc(Cc2cnc(C#N)nc2)nc1-c1cccc(OC(F)F)c1` (PDE4D3 (Homo sapiens)).
Completion: 0.1 to 1 µM

====

Overview of recorded EC50 for various compounds
- tgt: PDE4D3 (Homo sapiens, UniProt Q08499)
- Construct: GST
- Sequence (Q08499 1-673 isoform Q08499-2): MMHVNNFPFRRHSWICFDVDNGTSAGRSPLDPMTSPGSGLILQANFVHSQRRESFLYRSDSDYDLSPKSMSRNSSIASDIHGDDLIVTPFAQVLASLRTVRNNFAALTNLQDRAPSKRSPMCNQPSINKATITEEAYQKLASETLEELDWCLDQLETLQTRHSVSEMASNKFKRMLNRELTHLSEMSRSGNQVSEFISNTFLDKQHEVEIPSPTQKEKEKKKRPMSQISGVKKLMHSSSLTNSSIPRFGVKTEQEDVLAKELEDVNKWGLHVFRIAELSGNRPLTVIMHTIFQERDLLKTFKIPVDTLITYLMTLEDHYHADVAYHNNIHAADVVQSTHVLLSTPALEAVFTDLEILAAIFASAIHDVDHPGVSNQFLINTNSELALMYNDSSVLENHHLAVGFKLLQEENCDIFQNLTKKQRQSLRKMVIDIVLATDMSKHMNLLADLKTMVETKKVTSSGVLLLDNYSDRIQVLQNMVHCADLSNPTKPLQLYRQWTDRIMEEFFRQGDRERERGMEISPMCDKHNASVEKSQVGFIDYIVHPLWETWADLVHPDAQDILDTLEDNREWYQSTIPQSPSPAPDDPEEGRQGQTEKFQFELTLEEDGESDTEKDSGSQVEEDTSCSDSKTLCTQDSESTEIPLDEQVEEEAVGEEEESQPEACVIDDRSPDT
- Type: biochemical
- measurement-conditions: GST-tagged PDE4D3, 200 nM FAM-cAMP, 11-point dose-response; read-out: PD4d3 pEC50 (converted)

Prompt: Please give the documented EC50 of `OCc1ncn(Cc2cnc(OCC(F)(F)F)c(-c3cccc(Cl)c3)c2)n1`
Completion: 100 to 1000 nM

Prompt: For the compound `CCOc1ccc(Cc2cnc(OC)c(-c3cccc(Cl)c3)c2)nc1` , give its reported EC50.
Completion: > 10000 nM

Prompt: Tell us which EC50 value is on record for `COc1ncc(Cc2cnc(N)nc2)cc1-c1ccc(Cl)c(F)c1`
Completion: 100 to 1000 nM

Prompt: Provide EC50 value for the following compound: `COc1ncc(Cc2ccc(CC(N)=O)cc2)cc1-c1ccc(F)c(F)c1`
Completion: < 100 nM

Prompt: Could you please provide reported EC50 for `COc1ncc(Cc2cnc(C(C)(C)C#N)nc2)cc1-c1cccc(Cl)c1` ? Thanks!
Completion: 1000 to 10000 nM

Prompt: Find the measured EC50 of `COc1ncc(Cc2cnc(N)c(F)c2)cc1-c1ccnc(OC(F)F)c1` and report it.
Completion: < 100 nM

Prompt: # return recorded EC50 for entry `CCOc1ncc(Cc2cnc(N)nc2)cc1-c1ccc(F)cc1`
Completion: < 100 nM

====

- tgt: PDE4D3 (Homo sapiens, UniProt Q08499)
- Construct: GST
- Assay type: biochemical
- measurement-conditions: GST-tagged PDE4D3, 200 nM FAM-cAMP, 11-point dose-response; read-out: PD4d3 pEC50 (converted)
reported-property: EC50

Known EC50 results, listed for orientation:
{"compound": "COc1ncc(Cc2cnc(N)nc2)cc1-c1ccc(F)c(F)c1", "EC50": "< 100 nM"}
{"compound": "CCOC(=O)Cc1ccc(Cc2cnc(OC)c(-c3ccc(F)c(F)c3)c2)cc1 [Intermediate 49]", "EC50": "< 100 nM"}
{"compound": "COc1ncc(Cn2nnnc2CO)cc1-c1ccc(F)cc1", "EC50": "1000 to 10000 nM"}
{"compound": "COc1cc(-c2cc(Cn3cc(CO)nc3C)cnc2OC)ccc1F", "EC50": "1000 to 10000 nM"}

// below: EC50 requested for another compound
Prompt: Hello, please tell me recorded EC50 for this one: `CCOc1ncc(Cn2cnc(CO)n2)cc1-c1ccc(F)c(F)c1`
Completion: < 100 nM
